- protocol: Cytotoxicity against human HCT116 cells at 20 uM after 48 hrs by MTT assay relative to untreated control
- measurementSetup: hct-116, 48 h

{"compound": "O=C1C(=O)N(CC(CO)NCCCNc2ccnc3cc(Cl)ccc23)c2ccc(Cl)cc21 (stereo not drawn)", "INH [%]": 46}
{"compound": "O=C1C(=O)N(CC(CO)NCCNc2ccnc3cc(Cl)ccc23)c2ccccc21 (stereo not drawn)", "INH [%]": 91}
{"compound": "COc1cccc2c1C(=O)c1c(O)c3c(c(O)c1C2=O)C[C@@](O)(C(=O)CO)C[C@@H]3O[C@H]1C[C@H](N)[C@H](O)[C@H](C)O1", "INH [%]": 79}
{"compound": "O=C1C(=O)N(CC(CO)NCCCNc2ccnc3cc(Cl)ccc23)c2ccc(F)cc21 (stereo not drawn)", "INH [%]": 66}
{"compound": "O=C1C(=O)N(CC(CO)NCCCNc2ccnc3cc(Cl)ccc23)c2ccccc21 (stereo not drawn)", "INH [%]": 85}
{"compound": "O=C1C(=O)N(CC(CO)NCCNc2ccnc3cc(Cl)ccc23)c2ccc(Cl)cc21 (stereo not drawn)", "INH [%]": 88}
{"compound": "O=C1C(=O)N(CC(CO)NCCCCNc2ccnc3cc(Cl)ccc23)c2ccccc21 (stereo not drawn)", "INH [%]": 37}
{"compound": "O=C1C(=O)N(CC(CO)NCCCCNc2ccnc3cc(Cl)ccc23)c2ccc(F)cc21 (stereo not drawn)", "INH [%]": 83}

Value source: ChEMBL document CHEMBL3351235
